biological target: Probable G-protein coupled receptor 34 (Mus musculus); assay: Intrinsic activity at mouse GPR34 expressed in HEK293 cells co-transfected with AP-TGFalpha/chimeric […] assessed as induction of ectodomain shedding of membrane bound AP-TGFalpha after 1 hr relative to O-(Hydroxy(((2R,3R)-2-(((3-(2-((3-phenoxybenzyl)oxy)phenyl)- propanoyl)oxy)methyl)tetrahydro-2H-pyran-3-yl)oxy)phosphoryl)- L-serine; format: cell-based
OBSERVATION TYPE: Intrinsic activity

| SMILES STRING | SUBJECT OF TEST | Intrinsic activity |
| --- | --- | --- |
| N[C@@H](COP(=O)(O)OCCCOC(=O)CCc1ccccc1OCc1cccc(Oc2ccc(-c3ccccc3)cc2)c1)C(=O)O | Probable G-protein coupled receptor 34 (Mus musculus) | 2.2 |

1 = CC(C)(C)c1ccc(Oc2cccc(COc3ccccc3CCC(=O)OCCCOP(=O)(O)OC[C@H](N)C(=O)O)c2)cc1
2 = CC(C)(C)c1ccc(-c2ccc(Oc3cccc(COc4ccccc4CCC(=O)OCCCOP(=O)(O)OC[C@H](N)C(=O)O)c3)cc2)cc1
3 = Cc1ccccc1-c1ccc(Oc2cccc(COc3ccccc3CCC(=O)OCCCOP(=O)(O)OC[C@H](N)C(=O)O)c2)cc1
Q: Put these in order: smallest Intrinsic activity first, largest last. Your answer should be the labels, listed in the requested order.
A: 1, 3, 2

====

molecular target: Probable G-protein coupled receptor 34 (Mus musculus) (UniProt Q9R1K6); assay: Agonist activity at mouse GPR34 expressed in HEK293 cells co-transfected with AP-TGFalpha/chimeric Galphaq/i1 assessed as induction of ectodomain shedding of membrane bound AP-TGFalpha after 1 hr relative to control; type: cell-based
OBSERVATION TYPE: Emax (%)

| SMILES STRING | Emax / % |
| --- | --- |
| CC(C)(C)c1cccc(Oc2cccc(COc3ccccc3CCC(=O)OCCCOP(=O)(O)OC[C@H](N)C(=O)O)c2)c1 | 19.9 |
| N[C@@H](COP(=O)(O)OCCCOC(=O)CCc1ccccc1OCc1cccc(Oc2ccccc2Cl)c1)C(=O)O | 19.8 |
| COc1ccc(Oc2cccc(COc3ccccc3CCC(=O)OCCCOP(=O)(O)OC[C@H](N)C(=O)O)c2)cc1 | 16.6 |
| CC(C)(C)c1ccc(Oc2cccc(COc3ccccc3CCC(=O)OCCCOP(=O)(O)OC[C@H](N)C(=O)O)c2)cc1 | 16.9 |
| N[C@@H](COP(=O)(O)OCCCOC(=O)CCc1ccccc1OCCCCCCOc1ccccc1)C(=O)O | 20.7 |
| Cc1ccccc1Oc1cccc(COc2ccccc2CCC(=O)OCCCOP(=O)(O)OC[C@H](N)C(=O)O)c1 | 20.3 |
| N[C@@H](COP(=O)(O)OCCCOC(=O)CCc1ccccc1OCc1cccc(Cc2ccccc2)c1)C(=O)O | 14.5 |
| CC(C)(C)c1cccc(-c2ccc(Oc3cccc(COc4ccccc4CCC(=O)OCCCOP(=O)(O)OC[C@H](N)C(=O)O)c3)cc2)c1 | 15.9 |
| CCc1ccc(Oc2cccc(COc3ccccc3CCC(=O)OCCCOP(=O)(O)OC[C@H](N)C(=O)O)c2)cc1 | 19.3 |
| CCCCCCCCCCCOc1ccccc1CCC(=O)OCCCOP(=O)(O)OC[C@H](N)C(=O)O | 14.6 |

====

target: Probable G-protein coupled receptor 34 (Mus musculus, UniProt Q9R1K6); test: Agonist activity at mouse GPR34 expressed in HEK293 cells co-transfected with AP-TGFalpha/chimeric Galphaq/i1 assessed as induction of ectodomain shedding of membrane bound AP-TGFalpha after 1 hr
Sequence (Q9R1K6 whole entry, the tested form may be a part): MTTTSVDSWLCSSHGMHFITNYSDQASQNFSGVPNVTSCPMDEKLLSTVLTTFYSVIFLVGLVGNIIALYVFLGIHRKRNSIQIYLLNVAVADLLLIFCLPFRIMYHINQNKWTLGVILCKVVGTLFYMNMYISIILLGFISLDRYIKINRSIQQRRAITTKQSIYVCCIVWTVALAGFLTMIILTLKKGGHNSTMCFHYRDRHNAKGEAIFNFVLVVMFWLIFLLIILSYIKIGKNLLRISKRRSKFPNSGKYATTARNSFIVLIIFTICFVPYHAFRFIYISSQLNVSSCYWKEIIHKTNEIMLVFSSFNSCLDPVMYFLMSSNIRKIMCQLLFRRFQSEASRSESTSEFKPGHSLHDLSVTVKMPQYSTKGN
pEC50: −log10 of the molar value.
OBSERVATION TYPE: pEC50

Worked examples, 2 compounds total:
| SMILES STRING | MEASUREMENT |
| --- | --- |
| N[C@@H](COP(=O)(O)OCCCOC(=O)CCc1ccccc1OCc1cccc(Oc2cccc(Cl)c2)c1)C(=O)O | 6.77 |
| N[C@@H](COP(=O)(O)OCCCOC(=O)CCc1ccccc1OCc1cccc(Oc2ccc(-c3ccccc3)cc2)c1)C(=O)O | 7.35 |

I = Cc1ccc(Oc2cccc(COc3ccccc3CCC(=O)OCCCOP(=O)(O)OC[C@H](N)C(=O)O)c2)cc1
II = CC(C)(C)c1cccc(Oc2cccc(COc3ccccc3CCC(=O)OCCCOP(=O)(O)OC[C@H](N)C(=O)O)c2)c1
III = N[C@@H](COP(=O)(O)OCCCOC(=O)CCc1ccccc1OCCCCOc1ccccc1)C(=O)O
Q: Hey, quick one: sort these by pEC50, largest value first please. Write the labels, ordered according to the request.
A: I, II, III
(I: 7.41, II: 6.68, III: 5.77)
